Entry source: PubChem BioAssay (NCI)

assay: NCI Yeast Anticancer Drug Screen. Data for the bub3 strain (AID 167); conditions: S. cerevisiae bub3 mutant strain, at 50.0 µM
Compounds without any hit were thinned out: in the full panel of roughly 79,000, 15% have a hit. The source made the active and inactive calls. Cut-off read from the data, not from the text of the source: active = growth inhibition above about 70%; inactive = the rest.
Outcomes: active, inactive

smiles-notation | assigned-label
O=C1SC(c2ccccc2)=S=C1c1ccccc1 | inactive
COc1cc2c(cc1O)CCCCC2 | inactive
O=C(NNc1ncccn1)c1ccc(C(=O)NNc2ncccn2)cc1 | inactive
BrC1=CC(Br)=C2N=C(C(Br)(Br)Br)N=C3N=C(C(Br)(Br)Br)N=C1N32 | active
COC(=O)c1ccccc1C(=O)c1cc(OC)c2c(c1OC)CCCC2 | active
COc1ccc(C(=O)O)c(-c2c(C(=O)O)ccc(OC)c2OC(C)=O)c1 | active

====

# growth inhibition annotations
experiment: NCI Yeast Anticancer Drug Screen. Data for the mec2-1 strain (AID 157); details: S. cerevisiae mec2-1 strain, at 5.0 µM (retest, dose inferred, filed as 0.5), active compounds read high
This is part of a sample that, as a whole, favours compounds with a hit. Of some 79,000 tested, about 15% had one in any assay.

molecule | growth inhibition [%]
OCCSC(=S)Nc1ccc(Cl)c(Cl)c1 | 10
COc1ccc(N=Nc2ccc3oc(=O)c(C(=O)Nc4ccc(OC)cc4)cc3c2)cc1 | 14
COc1ccc(C2Cc3cc(OC)ccc3C2=O)cc1 (centres undefined) | 9
NC1c2ccccc2-c2ccc([N+](=O)[O-])cc21 (centres undefined) | 4
CCCn1cnc2c(SCc3ccc(Cl)cc3Cl)nc(N)nc21 | 12
NC(CSSCC(N)C(=O)Nc1ccc2ccccc2c1)C(=O)Nc1ccc2ccccc2c1 (centres undefined) | 42
O=C(Cc1nc2ccc([N+](=O)[O-])cc2[nH]c1=O)C(=O)Nc1cc(Cl)c(Cl)cc1Cl | -16
Cc1cc(NCCCN(C)C)c2cc3ccc4cccc5ccc(c2n1)c3c45 | -12
COC(=O)c1ccc(C)cc1CC1Cc2cc(C)ccc2C1=O (centres undefined) | -21
CCOCCOC(=O)C(C)O (centres undefined) | -1
Nc1ccccc1CC(c1c[nH]c2ccccc12)c1c[nH]c2ccccc12 | 1
CCN(CC)CC(O)c1c(-c2ccccc2)c(-c2ccccc2)c2n1CCC2 (centres undefined) | -3
CCOC(=O)C1(Br)CCN(S(=O)(=O)c2ccc(C)cc2)c2ccccc2C1=O (centres undefined) | 10
N#CC1C(=O)NC(=O)CC1c1ccccc1 (centres undefined) | -10
CC(CCOP(=O)(O)OCCC(C)CC(C)(C)C)CC(C)(C)C (centres undefined) | -9
O=C1C(=O)C(Cl)=C(Cl)C(Cl)=C1Cl | 7
N=C(N)SCc1nc(-c2ccc(Cl)cc2)no1 | 8
COc1ccc2c(c1)[n+]([O-])c(S(=O)(=O)c1ccc(C)cc1)c(N)[n+]2[O-] | 18
O[Si](O)(c1ccccc1)c1ccccc1 | 7

====

Experiment: NCI Yeast Anticancer Drug Screen. Data for the cln2 rad14 strain (AID 165);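 note: 0% = growth equal to vehicle treated cultures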
Conditions: S. cerevisiae cln2 rad14 strain, at 5.0 µM (retest, dose inferred, filed as 0.5)
Protocol: Growth inhibition of yeast strains with defined genetic alterations is measured as a screen for potential anti-cancer activity. Selected strains with alterations in DNA damage repair or cell cycle control were exposed to compounds and growth inhibition was measured relative to vehicle treated controls. The strain used in this assay is cln2 rad14
Compounds without any hit were thinned out: in the full panel of roughly 79,000, 15% have a hit. Calls of active or inactive are those of the source. No stated cut-off is given here; in the data, active means growth inhibition above about 70%; inactive means the rest.
Outcome codes: True (active), False (inactive)

molecule | assigned-label
COC(=O)C1CCC(=O)N1C(c1ccc(OC)cc1)c1cc(OC)c(OC)c(OC)c1 (stereo not drawn) | False
CN1C=C(C#N)CCC1Sc1ccc(Cl)cc1 (stereo not drawn) | False
O=C(O)/C=C/C(=O)Nc1cccc2ccccc12 | False
Cc1nn(-c2ccc(Cl)cc2)c2nc(N)nc(N)c12 | False
CN(C)CC(O)c1cc(-c2ccc(Cl)c(Cl)c2)nc2c(Cl)cc(Cl)cc12 (stereo not drawn) | False
COc1cc(C2=NCCO2)cc(OC)c1OC | False
CC1(C)CC(N(C(=O)/C=C/c2ccc([N+](=O)[O-])o2)C2CCCCC2)CC(C)(C)N1 | False
N#Cc1ccc(C(F)(F)F)cc1[N+](=O)[O-] | False
CN=C(N)N/N=C(\C)c1ccc2c(c1)Cc1cc(Cl)ccc1-2 | False
ClC(Cl)(Cl)C(NCCN1CCOCC1)c1ccccc1 (stereo not drawn) | False
O=S(=O)(Nc1ccccn1)c1ccc(NCc2c3ccccc3nc3cc(Cl)ccc23)cc1 | False
O=C(Nc1ccccc1)c1ccc([N+](=O)[O-])o1 | False
CC(=O)c1ccc(Cl)c(N=Cc2cc(Br)ccc2O)c1 | False
Cc1ccc(NC(=O)Oc2ccc(C(C)(C)C)cc2Br)cc1NC(=O)Oc1ccc(C(C)(C)C)cc1Br | False
CC(=O)O[C@@H]1CC(C)C2CC2C2=C(C(O)OC2O)[C@@H]1C(C)CCC=C(C)C (stereo partly drawn) | True
CC(=O)CCCOC(C)=O | False
O=C1O/C(=C\c2ccccc2)c2ccccc21 | False
CC(C)(C)c1ccc(-c2nnc(SCc3ccc(Cl)cc3)n2-c2cccc(C(F)(F)F)c2)cc1 | False
CN(Nc1ccc(Cl)cc1)c1ccc(Cl)cc1 | False
Oc1ccc2ccccc2c1CNc1ccc2ccccc2c1 | False
Cc1ccc2c(c1)SSc1ccc(C)cc1SS2 | True
CCC[CH2][Ge]([CH2]CCC)([CH2]CCC)[O]C(=O)C(OC(C)=O)c1ccccc1 (stereo not drawn) | False
Cc1cc(C)c(S(=O)(=O)c2c(C)cc(C)cc2C)c(C)c1 | False
CCC(C)(C)c1ccc(OC(=O)C(C)OC(C)=O)cc1 (stereo not drawn) | False
O=C(Nc1ccc(Cl)cc1Cl)OC(Cn1cncn1)c1ccc(Cl)cc1Cl (stereo not drawn) | False
O=C(O)CCC/C(=N\Nc1ccccc1)C(=O)O | False
C=C(Cl)C(=NC(C)(C)C)Nc1ccccc1Cl | False
O=c1cc(/C=C/c2ccccc2)cccc1O | False
CCC(CO)Nc1nc2cc(Cl)ccc2c2ccc(Cl)cc12 (stereo not drawn) | False
O=C1OC(c2ccccc2)(c2ccc(-c3ccccc3O)cc2)c2ccccc21 (stereo not drawn) | False
CCC(CC)COC(=O)c1cccnc1 | False
COC(=O)/C(Br)=C(\Br)c1ccccc1 | False
COC(=O)CCCCCCCCCCC(=O)O | False
